- testTarget: T1, FZD6 CRD (Homo sapiens, UniProt O60353)
- T1 construct: S20-P146; GPI anchor signal (C); expressed in transfected cells; host or cells: CHO cells, lentiviral pLenti-puro
- T1 sequence (O60353 20-146): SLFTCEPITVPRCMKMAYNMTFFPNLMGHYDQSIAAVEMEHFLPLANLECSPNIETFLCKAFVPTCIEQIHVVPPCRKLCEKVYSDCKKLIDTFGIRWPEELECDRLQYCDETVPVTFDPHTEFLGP
- test: Immunofluorescence of anti-FZD5 Fab binding to CHO cells overexpressing Frizzled CRD
- Design: key: −: no binding; +: very weak binder; ++: weak binder; +++: good binder; ++++: very good binder
observedProperty: Immunofluorescence binding, Frizzled CRD overexpressed on CHO cells: FZD6

# molecule, testValue
data = [
    ("Fab-2909: anti-FZD5 Fab with antibody variable region Fv-2909; CDR SEQ ID NOs: 35, 36, 48, 87, 124, 161 (antibody, V domains shown) VH: EVQLVESGGGLVQPGGSLRLSCAASGFNISSSYMHWVRQAPGKGLEWVASISSSSGYTSYADSVKGRFTISADTSKNTAYLQMNSLRAEDTAVYYCARTVRGSKKPYFSGWAMDYWGQGTLVTVSS VL: DIQMTQSPSSLSASVGDRVTITCRASQSVSSAVAWYQQKPGKAPKLLIYSASSLYSGVPSRFSGSRSGTDFTLTISSLQPEDFATYYCQQSWSYHYLITFGQGTKVEIK", "−"),
    ("Fab-2905: anti-FZD5 Fab with antibody variable region Fv-2905; CDR SEQ ID NOs: 35, 36, 44, 83, 120, 157 (antibody, V domains shown) VH: EVQLVESGGGLVQPGGSLRLSCAASGFNLSYYYMHWVRQAPGKGLEWVASIYSSYSYTSYADSVKGRFTISADTSKNTAYLQMNSLRAEDTAVYYCARSGYALDYWGQGTLVTVSS VL: DIQMTQSPSSLSASVGDRVTITCRASQSVSSAVAWYQQKPGKAPKLLIYSASSLYSGVPSRFSGSRSGTDFTLTISSLQPEDFATYYCQQSSWYYGYPFTFGQGTKVEIK", "−"),
]
